Origin of measurements: ChEMBL document CHEMBL4000225

# Target system: Botulinum neurotoxin type A (Clostridium botulinum, UniProt P0DPI0)
# Sequence (P0DPI0 2-448 limits assumed): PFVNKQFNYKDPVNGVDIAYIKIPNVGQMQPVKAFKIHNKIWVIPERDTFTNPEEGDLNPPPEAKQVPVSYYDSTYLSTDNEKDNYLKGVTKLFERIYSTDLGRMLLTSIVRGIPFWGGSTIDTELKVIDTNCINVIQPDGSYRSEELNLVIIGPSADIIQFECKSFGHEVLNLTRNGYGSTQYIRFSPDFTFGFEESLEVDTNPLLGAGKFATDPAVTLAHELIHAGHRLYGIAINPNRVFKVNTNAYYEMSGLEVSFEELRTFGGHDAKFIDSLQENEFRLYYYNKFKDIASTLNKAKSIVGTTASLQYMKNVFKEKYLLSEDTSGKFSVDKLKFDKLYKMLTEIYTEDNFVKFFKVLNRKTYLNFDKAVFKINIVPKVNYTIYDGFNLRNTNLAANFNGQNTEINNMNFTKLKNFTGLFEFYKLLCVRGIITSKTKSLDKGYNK
# Test: Inhibition of protease activity of recombinant full length Clostridium botulinum Hall BoNT/A light chain using SNAP-25 peptide (187 to 203 residues) as substrate after 5 mins by HPLC analysis
Please go through the items and note down their pIC50.
Numbers only, as −log10 of the molar value.

Batch: pIC50 for all items listed.
1. Oc1c(C(Nc2ncccn2)c2ccccc2)cc(Cl)c2cccnc12 (configuration not stated)
2. Cc1ccc2ccc(C(Nc3ncccn3)c3ccc(F)cc3F)c(O)c2n1 (configuration not stated)

Response line:
[5.35, 5.37]

Batch: pIC50 for all items listed.
1. Oc1c(C(Nc2ncccn2)c2ccc(F)cc2F)ccc2cccnc12 (configuration not stated)
2. O=Cc1ccc(F)cc1
3. Cc1ccc2cccc(O)c2n1 [8-HYDROXY QUINALDINE]
4. Oc1c(C(Nc2ncccn2)c2ccccc2F)ccc2cccnc12 (configuration not stated)
5. Oc1ccc(Cl)c2cccnc12
6. Oc1c(C(Nc2ccccn2)c2ccc(F)cc2)cc(Cl)c2cccnc12 (configuration not stated)

Response line:
1: 4.90; 2: 5.64; 3: 5.41; 4: 5.72; 5: 5.72; 6: 6.22

Batch: pIC50 for all items listed.
1. Oc1c(C(Nc2ccccn2)c2ccccc2F)ccc2cccnc12 (configuration not stated)
2. Oc1c(C(Nc2ccccn2)c2ccccc2)cc(Cl)c2cccnc12 (configuration not stated)

Response line:
[5.92, 5.82]

Batch: pIC50 for all items listed.
1. Cc1ccc2ccc(C(Nc3ccccn3)c3ccccc3F)c(O)c2n1 (configuration not stated)
2. Oc1c(C(Nc2ccccn2)c2ccc(F)cc2)ccc2cccnc12 (configuration not stated)

Response line:
1: 5.85; 2: 5.39

Batch: pIC50 for all items listed.
1. Cc1ccc2ccc(C(Nc3ccccn3)c3ccc(F)cc3F)c(O)c2n1 (configuration not stated)
2. Cc1ccc2ccc(C(Nc3cccnc3)c3ccccc3F)c(O)c2n1 (configuration not stated)
3. Oc1c(C(Nc2cccnc2)c2ccccc2)cc(Cl)c2cccnc12 (configuration not stated)
4. Nc1ncccn1
5. Oc1c(C(Nc2ncccn2)c2ccc(F)cc2)cc(Cl)c2cccnc12 (configuration not stated)

Response line:
1: 5.57; 2: 6.15; 3: 5.46; 4: 5.34; 5: 6.15

---

# Target system: Botulinum neurotoxin type A (Clostridium botulinum) (UniProt P0DPI0)
# Test: Inhibition of Clostridium botulinum Hall BoNT/A light chain-induced paralysis in CD1 mouse phrenic nerve diaphragm assessed as compound concentration required to cause delay in time to 50% loss of twitch tension evoked by nerve stimulation preincubated with BoNT/A light chain for 15 to 20 mins followed by addition to diaphragm
# Applied conditions: Clostridium botulinum A str. Hall
Measurement kind: Activity
State the value, then name its unit.

Oc1c(C(Nc2cccnc2)c2ccccc2F)ccc2cccnc12 (centres undefined) | 10 µM

Batch: Activity for all items listed.
1. Oc1c(C(Nc2ccccn2)c2ccc(F)cc2F)cc(Cl)c2cccnc12 (centres undefined)
2. Oc1c(C(Nc2ccccn2)c2ccccc2F)cc(Cl)c2cccnc12 (centres undefined)
3. Oc1c(C(Nc2cccnc2)c2ccccc2)cc(Cl)c2cccnc12 (centres undefined)
4. Oc1c(C(Nc2ncccn2)c2ccccc2F)cc(Cl)c2cccnc12 (centres undefined)
5. Cc1ccc2ccc(C(Nc3cccnc3)c3ccccc3F)c(O)c2n1 (centres undefined)
6. Oc1c(C(Nc2ccccn2)c2ccccc2)cc(Cl)c2cccnc12 (centres undefined)
7. Cc1ccc2ccc(C(Nc3cccnc3)c3ccc(F)cc3)c(O)c2n1 (centres undefined)
8. Oc1c(C(Nc2cccnc2)c2ccc(F)cc2F)cc(Cl)c2cccnc12 (centres undefined)

Response line:
["20 µM", "20 µM", "2 µM", "2 µM", "20 µM", "2 µM", "20 µM", "20 µM"]

Batch: Activity for all items listed.
1. Oc1c(C(Nc2ccccn2)c2ccccc2F)ccc2cccnc12 (centres undefined)
2. Cc1ccc2ccc(C(Nc3ccccn3)c3ccc(F)cc3F)c(O)c2n1 (centres undefined)
3. Cc1ccc2ccc(C(Nc3cccnc3)c3ccccc3)c(O)c2n1 (centres undefined)
4. Oc1c(C(Nc2ncccn2)c2ccc(F)cc2)ccc2cccnc12 (centres undefined)
5. Oc1c(C(Nc2cccnc2)c2ccc(F)cc2)cc(Cl)c2cccnc12 (centres undefined)
6. Oc1c(C(Nc2cccnc2)c2ccc(F)cc2)ccc2cccnc12 (centres undefined)
7. Oc1c(C(Nc2cccnc2)c2ccccc2)ccc2cccnc12 (centres undefined)

Response line:
1: 20 µM; 2: 20 µM; 3: 20 µM; 4: 20 µM; 5: 2 µM; 6: 2 µM; 7: 20 µM

Batch: Activity for all items listed.
1. Cc1ccc2ccc(C(Nc3ccccn3)c3ccc(F)cc3)c(O)c2n1 (centres undefined)
2. Oc1c(C(Nc2cccnc2)c2ccc(F)cc2F)ccc2cccnc12 (centres undefined)
3. Oc1c(C(Nc2ccccn2)c2ccccc2)ccc2cccnc12 (centres undefined)
4. Oc1c(C(Nc2cccnc2)c2ccccc2F)cc(Cl)c2cccnc12 (centres undefined)
5. Cc1ccc2ccc(C(Nc3cccnc3)c3ccc(F)cc3F)c(O)c2n1 (centres undefined)
6. Cc1ccc2ccc(C(Nc3ncccn3)c3ccc(F)cc3)c(O)c2n1 (centres undefined)
7. Oc1c(C(Nc2ccccn2)c2ccc(F)cc2)cc(Cl)c2cccnc12 (centres undefined)
8. Oc1c(C(Nc2ccccn2)c2ccc(F)cc2)ccc2cccnc12 (centres undefined)

Response line:
1: 20 µM; 2: 20 µM; 3: 10 µM; 4: 2 µM; 5: 2 µM; 6: 20 µM; 7: 20 µM; 8: 2 µM

Batch: Activity for all items listed.
1. Cc1ccc2ccc(C(Nc3ccccn3)c3ccccc3)c(O)c2n1 (centres undefined)
2. Oc1c(C(Nc2ncccn2)c2ccccc2)cc(Cl)c2cccnc12 (centres undefined)
3. Oc1c(C(Nc2ncccn2)c2ccc(F)cc2)cc(Cl)c2cccnc12 (centres undefined)
4. Cc1ccc2ccc(C(Nc3ccccn3)c3ccccc3F)c(O)c2n1 (centres undefined)
5. Oc1c(C(Nc2ccccn2)c2ccc(F)cc2F)ccc2cccnc12 (centres undefined)

Response line:
["2 µM", "2 µM", "20 µM", "2 µM", "20 µM"]

---

# Target system: Botulinum neurotoxin type A (Clostridium botulinum)
# Test: Inhibition of protease activity of recombinant full length Clostridium botulinum Hall BoNT/A light chain using SNAP-25 peptide (187 to 203 residues) as substrate after 5 mins by HPLC analysis
# Set-up: species or system Clostridium botulinum A str. Hall
Measurement kind: pIC50
Give bare numbers, as −log10 of the molar value.

Cc1ccc2ccc(C(Nc3ccccn3)c3ccccc3)c(O)c2n1 (stereo not given) | 6.15

Batch: pIC50 for all items listed.
1. Oc1c(C(Nc2cccnc2)c2ccc(F)cc2F)cc(Cl)c2cccnc12 (stereo not given)
2. Cc1ccc2ccc(C(Nc3cccnc3)c3ccc(F)cc3F)c(O)c2n1 (stereo not given)
3. Oc1c(C(Nc2cccnc2)c2ccccc2F)cc(Cl)c2cccnc12 (stereo not given)
4. Cc1ccc2ccc(C(Nc3ncccn3)c3ccc(F)cc3)c(O)c2n1 (stereo not given)
5. Oc1c(C(Nc2cccnc2)c2ccc(F)cc2F)ccc2cccnc12 (stereo not given)

Response line:
[6.22, 4.91, 6.15, 5.38, 5.36]

Batch: pIC50 for all items listed.
1. Cc1ccc2ccc(C(Nc3ncccn3)c3ccccc3)c(O)c2n1 (stereo not given)
2. Oc1c(C(Nc2ccccn2)c2ccc(F)cc2F)ccc2cccnc12 (stereo not given)
3. Oc1c(C(Nc2cccnc2)c2ccc(F)cc2)ccc2cccnc12 (stereo not given)
4. O=Cc1ccc(F)cc1F

Response line:
1. 5.34
2. 5.44
3. 5.34
4. 5.31

---

# Target system: Botulinum neurotoxin type A (Clostridium botulinum)
# Test: Inhibition of protease activity of recombinant full length Clostridium botulinum Hall BoNT/A light chain using SNAP-25 peptide (187 to 203 residues) as substrate after 5 mins by HPLC analysis
Measurement kind: pIC50
Numbers only, as −log10 of the molar value.

Worked examples follow.
Oc1cccc2cccnc12 | 5.41
Oc1c(C(Nc2ncccn2)c2ccc(F)cc2)ccc2cccnc12 (stereo not given) | 5.77
Oc1c(C(Nc2ncccn2)c2ccccc2)ccc2cccnc12 (stereo not given) | 5.57
Oc1c(C(Nc2cccnc2)c2ccc(F)cc2)cc(Cl)c2cccnc12 (stereo not given) | 5.64
Nc1ccccn1 | 5.74
O=Cc1ccccc1F | 5.55
Oc1c(C(Nc2ccccn2)c2ccc(F)cc2F)cc(Cl)c2cccnc12 (stereo not given) | 6.15
Cc1ccc2ccc(C(Nc3ccccn3)c3ccc(F)cc3)c(O)c2n1 (stereo not given) | 5.80
Cc1ccc2ccc(C(Nc3ncccn3)c3ccccc3F)c(O)c2n1 (stereo not given) | 4.92
Oc1c(C(Nc2ncccn2)c2ccc(F)cc2F)cc(Cl)c2cccnc12 (stereo not given) | 5.66

Batch: pIC50 for all items listed.
1. Oc1c(C(Nc2cccnc2)c2ccccc2)ccc2cccnc12 (stereo not given)
2. Nc1cccnc1
3. O=Cc1ccccc1
4. Oc1c(C(Nc2ncccn2)c2ccccc2F)cc(Cl)c2cccnc12 (stereo not given)

Response line:
1: 5.21; 2: 5.48; 3: 5.54; 4: 5.40

Item Oc1c(C(Nc2ccccn2)c2ccccc2F)cc(Cl)c2cccnc12 (stereo not given) was tested on Botulinum neurotoxin type A (Clostridium botulinum); the reported pIC50 is 5.85
